Taken from ChEMBL document CHEMBL4513216.

# Test system: Plasmodium berghei
# method: Screen against P. berghei liver stage (PbLuc), transformed with Luciferase, at 2uM
# Type: functional, HepG2
# condition summary: tested at 2 uM
About 2,700 (4%) of roughly 68,000 compounds showed an effect of 50% or more. The sample holds strong results, similar compounds and a random draw of the others, so the mix is not that of the screen.
endpoint: INHIBITION (%)
API: value field is a number in %; no unit string.

{"compound": "O=C(CN1CCN(c2ccnc3c(F)ccc(F)c23)CC1)N1CCCC1", "INHIBITION [%]": 3.01}

Identify measured INHIBITION associated with NC(=O)c1cc(C2CC2)nc2ccc(F)cc12
-28.49

Identify measured INHIBITION associated with COCC(=O)N1CC(c2csc(NC(C)=O)n2)C1
50.74

Identify measured INHIBITION associated with CC(=O)Nc1nc(C(=O)NCc2ccc(N3CCOC(C)C3)nc2)cs1 (stereo unspecified)
13.36

* * *

# Test system: Plasmodium berghei
# method: Screen against P. berghei liver stage (PbLuc), transformed with Luciferase, at 2uM
# Format: functional, HepG2
# condition summary: tested at 2 uM
About 2,700 (4%) of roughly 68,000 compounds showed an effect of 50% or more. The sample as a whole holds a higher share of strong results than the screen did.
Listed here: items and their measured INHIBITION.
API: value field is a number in %; no unit string.

Please look at CC(C)(C)n1cc(C(=O)N2CCN(Cc3cccnc3)CC2)cn1 and tell me its recorded INHIBITION on Plasmodium berghei.
-3.57

Please look at O=C1O[C@@H]2CN(C3CCOCC3)C[C@@H]2N1CCc1cccc(Cl)c1 and tell me its recorded INHIBITION on Plasmodium berghei.
19.46

Please look at CC(C)CNC(=O)[C@H]1CCS(=O)(=O)[C@@H]2CN(Cc3ccc(Cl)cc3)C[C@H]12 and tell me its recorded INHIBITION on Plasmodium berghei.
8.13

Please look at CN(Cc1noc(C2CC2)n1)C1CCN(Cc2nc(C3CC3)no2)C1 (stereo not drawn) and tell me its recorded INHIBITION on Plasmodium berghei.
27.89

Please look at COc1ccc2c(OCC(=O)NC(C)(C)C)ccnc2c1 and tell me its recorded INHIBITION on Plasmodium berghei.
-3.8

* * *

Listed here: items and their measured INHIBITION.
# Tested on: Plasmodium berghei
# method: Screen against P. berghei liver stage (PbLuc), transformed with Luciferase, at 2uM
# Type: functional, HepG2
# condition summary: tested at 2 uM
Screen size: about 68,000 compounds; about 2,700 (4%) showed an effect of 50% or more. The sample holds strong results, similar compounds and a random draw of the others, so the mix is not that of the screen.
API: value field is a number in %; no unit string.

Worked examples follow.
{"mol": "Cc1cccc(COC[C@@H]2CC[C@H]3[C@H](CCN3Cc3ccco3)O2)n1", "INHIBITION [%]": 2.39}
{"mol": "COCCN(Cc1ccc(C)o1)C(=O)Nc1nnc2ccccn12", "INHIBITION [%]": 33.9}

Moving on to another compound below.
Identify measured INHIBITION associated with CCc1nnc(NC(=O)N(CCOC)Cc2ccc(C)o2)s1
83.98

* * *

# Test system: Plasmodium berghei
# method: Screen against P. berghei liver stage (PbLuc), transformed with Luciferase, at 2uM
# Assay type: functional, HepG2
# condition summary: tested at 2 uM
Hit rate of the full screen: of about 68,000 compounds, about 2,700 (4%) showed an effect of 50% or more. The entries come from a sample that favours strong results as a whole.
Listed here: items and their measured INHIBITION.
# output: number + unit

Worked examples follow.
{"compound": "CC(C)(C)NC(=O)CN1CCCC(c2ccc(C(=O)O)cc2)C1 (centres undefined)", "endpoint": "INHIBITION", "result": "31.27%"}
{"compound": "c1cncc(OCc2n[nH]c3c2CN(Cc2cccs2)C3)c1", "endpoint": "INHIBITION", "result": "14.94%"}
{"compound": "CCS(=O)(=O)NCc1nc(C)cc(N2CCCC2)n1", "endpoint": "INHIBITION", "result": "53.61%"}

Identify measured INHIBITION associated with CCOCc1nn(CC2CC2)c2c1CN(Cc1cccs1)CC2
34.93%

* * *

# Test system: Plasmodium berghei
# method: Screen against P. berghei liver stage (PbLuc), transformed with Luciferase, at 2uM
# Type: functional, HepG2
# condition summary: tested at 2 uM
Among all 68,000 compounds or so, about 2,700 (4%) showed an effect of 50% or more. For the sample, strong results were picked, then their nearest neighbours and some compounds at random.
Listed here: items and their measured INHIBITION.
API: value field is a number in %; no unit string.

Please look at Cc1ccc(NC(=O)CNC(C)CN2CCOCC2)c(F)c1 (stereo unspecified) and tell me its recorded INHIBITION on Plasmodium berghei.
21.24

Please look at CCC(C)(CNC(=O)Nc1nncs1)N1CCOCC1 (stereo unspecified) and tell me its recorded INHIBITION on Plasmodium berghei.
-42.64

Please look at CCC1CN(C)c2ccccc2CN1C(=O)c1c[nH]c(=O)cc1C (stereo unspecified) and tell me its recorded INHIBITION on Plasmodium berghei.
42.8

Please look at CCC(=O)Nc1cccc(C(=O)NCCC2=CSC3=NCCCN23)c1 and tell me its recorded INHIBITION on Plasmodium berghei.
-17.86

Please look at Cc1ccc(CNCC2CNc3cc(C)nn3C2)cn1 (stereo unspecified) and tell me its recorded INHIBITION on Plasmodium berghei.
4.19

* * *

# Test system: Plasmodium berghei
# method: Screen against P. berghei liver stage (PbLuc), transformed with Luciferase, at 2uM
# Type: functional, HepG2
# condition summary: tested at 2 uM
About 2,700 (4%) of roughly 68,000 compounds showed an effect of 50% or more. This is one part of a sample in which strong results are shown more often than they occur.
# note: boundary value 30% maps to 0.0; INHIBITION below it maps to 1.0

Worked set:
{"molecule": "Cc1cc2nc(SCC(=O)N3CCOCC3)n(CC(C)C)c(=O)c2[nH]1", "label value": 0.0}
{"molecule": "CCOCC1CN(Cc2cnn(C)c2)Cc2ncn(C)c21 (stereo not drawn)", "label value": 1.0}
{"molecule": "COCCn1ccc(NC(=O)Nc2ccccn2)n1", "label value": 1.0}
{"molecule": "CNC(=O)Cc1ccc(NC(=O)NCc2ncc(C)s2)cc1", "label value": 0.0}
{"molecule": "Cc1cc(CN2CCCC2c2c(C)nn(C)c2Cl)on1 (stereo not drawn)", "label value": 1.0}
{"molecule": "CC(C)c1nn(C)c(N(C)C)c1CNCC(O)c1ccccc1 (stereo not drawn)", "label value": 0.0}
{"molecule": "O=C(Nc1cccnc1)C1Cc2nc(-c3ccsc3)sc2N1CC1CC1 (stereo not drawn)", "label value": 1.0}
{"molecule": "c1ccc(C[C@H]2CN(Cc3nccs3)CC[C@@H]2OCC2CC2)cc1", "label value": 0.0}

Input CCNC(=O)N(C)C(c1ccccc1)c1ccccn1 (stereo not drawn) ; condition: INHIBITION strictly below 30%. Does it hold?
1.0

Input CN1CC(=O)N(c2cccc(F)c2)CC12CCN(CCO)C2 (stereo not drawn) ; condition: INHIBITION strictly below 30%. Does it hold?
1.0

Input CCOc1ncnc2c1CCN(C(=O)c1ccncc1F)CC2 ; condition: INHIBITION strictly below 30%. Does it hold?
1.0

Input Cc1nn(C)c(C)c1CC(=O)N1CCCC(n2ccnc2C)C1 (stereo not drawn) ; condition: INHIBITION strictly below 30%. Does it hold?
0.0

Input COc1ccccc1C(O)CNCc1c(C(C)C)nn(C)c1N(C)C (stereo not drawn) ; condition: INHIBITION strictly below 30%. Does it hold?
0.0

Input NC(=O)c1cc(C2CCCN(Cc3ccc4c(c3)OCCO4)C2)n[nH]1 (stereo not drawn) ; condition: INHIBITION strictly below 30%. Does it hold?
1.0

* * *

Listed here: items and their measured INHIBITION.
# Test system: Plasmodium berghei
# method: Screen against P. berghei liver stage (PbLuc), transformed with Luciferase, at 2uM
# Format: functional, HepG2
# condition summary: tested at 2 uM
The whole screen tested about 68,000 compounds, of which about 2,700 (4%) showed an effect of 50% or more. This excerpt belongs to a sample that is enriched for strong results.
API: value field is a number in %; no unit string.

{"compound": "CN(Cc1cccnc1)C[C@@H]1OC[C@H]2CN(C(=O)C3CC3)CC[C@H]21", "INHIBITION, %": 20.21}

Moving on to another compound below.
Identify measured INHIBITION associated with O=C(O)[C@]12CCCN(CC3CCOC3)C[C@H]1CN(c1ncccn1)C2 (some centres undefined)
13.16
